- TESTED TARGET: human erythrocyte 20S β2c (trypsin-like) site, constitutive proteasome (Homo sapiens, UniProt P49720+Q99436)
- METHOD SUMMARY: Purified human 20S-PA28 peptidase assay, β2c site
MEASURED PROPERTY: IC50 (µM)

COMPOUND | MEASURED PROPERTY | UNITS SYMBOL | VALUE OBSERVED
Cc1ccc(CNC(=O)[C@H](CCc2ccccc2)NC(=O)[C@H](CCc2ccccc2)NC(=O)[C@H](CCc2ccccc2)NC(=O)c2cnc(C)cn2)cc1 [Compound 1] | IC50 | µM | 57

---

- TESTED TARGET: human peripheral blood monocyte 20S β2i site, immunoproteasome (Homo sapiens, UniProt P40306+P49720)
- METHOD SUMMARY: Purified human 20S-PA28 peptidase assay, β2i site

CHEMICAL STRUCTURE | IC50
Cc1ccc(CNC(=O)[C@H](CCc2ccccc2)NC(=O)[C@H](CCc2ccccc2)NC(=O)[C@H](CCc2ccccc2)NC(=O)c2cnc(C)cn2)cc1 | > 100 µM
